Assay: M. tuberculosis H37Rv growth inhibitors, H37Rv strain (AID 1626);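 further: bacteria incubated seven days before Alamar blue readout; 0% = bacteria only wells and 100% = bacteria with antibiotic wells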
Settings: hits give high values, concentration not given here
Out of some 220,000 compounds screened, about 2,000 (0.91%) were called active. Another 2% or so got no clear call; they are omitted. A selection follows. Potency and affinity values are given separately.
measured quantity: inhibition (%)
Give bare numbers, in %.

Reference set (10 entries):
Cc1ccc(-c2csc3nc(C)n(N)c(=O)c23)cc1 = 3.11
O=C(OCC(=O)N1CCCC1=O)C1COc2ccccc2O1 (stereo unspecified) = 2.07
Cc1cccc(NC(=O)CSc2nnc(-c3ccncc3)n2C)c1 = -2.48
CCCn1c(NCCO)nc2ccccc21 = -2.95
Cc1noc(-c2ccccc2OC(=O)c2ccccc2)n1 = 1.9
COc1cccc(N=Nc2c(N)[nH]n3c(=O)cc(-c4ccccc4)nc23)c1 = 70.2
O=S(=O)(NC1CCCCC1)c1ccc(Br)cc1 = 3.07
C/C(CC1(O)C(=O)N(C)c2ccccc21)=N\O (stereo unspecified) = -3.6
Cc1ccc(N/C=C(\C#N)S(=O)(=O)c2ccccc2)cc1 = 1.01
CCn1cc(C(=O)O)c(=O)c2cc(F)c(N3CCN(S(=O)(=O)c4ccc(Br)cc4)CC3)cc21 = 13.5

Could you tell me inhibition for each of these compounds? They are listed below.
1. CCCn1c(NC(=S)Nc2ccccc2)nc2ccccc21
2. CCOC(=O)N1c2ccccc2C=CC1OCC (stereo unspecified)
3. Clc1ccc2nc(-c3ccc4c(c3)OCO4)cn2c1
4. COc1ccc(Nc2ncc(C(=O)O)c3ccccc23)cc1
5. COc1ccc(-c2nnc(SCC(=O)NC(C)C)n2CC2CCCO2)cc1OC (stereo unspecified)
6. CC(C)C(NC(=O)c1ccccc1)C(=O)NC1=NCCS1 (stereo unspecified)
7. CCOC(=O)C1=C(CSc2nc(-c3ccccc3)ccc2C#N)OC(N)=C(C#N)C1c1ccccc1 (stereo unspecified)
8. CC(=O)Nc1ccccc1C(=O)C(=O)Nc1ccc(C(=O)N2CCOCC2)cc1

7.73
-8.15
4.92
5.05
-10.3
-2.59
-11.5
-0.85

Could you tell me inhibition for each of these compounds? They are listed below.
1. Cc1c(/C=N\NC(=O)C2COc3ccccc3O2)c2ccccc2n1C (stereo unspecified)
2. CCN=C1NN=C(c2cc(C)n(Cc3ccco3)c2C)CS1
3. ONC(=Nc1ccc(Cl)cc1)c1ccc(Cl)cc1

1: 10.6; 2: 8.94; 3: -13.7

###

Test: M. tuberculosis H37Rv growth inhibitors, H37Rv strain (AID 1626);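 further: bacteria incubated seven days before Alamar blue readout; 0% = bacteria only wells and 100% = bacteria with antibiotic wells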
Settings: hits give high values, concentration not given here
The whole screen tested about 220,000 compounds, of which about 2,000 (0.91%) were called active. Roughly 2% stayed inconclusive and do not appear here. A selection follows. Entries with a potency or affinity are not part of this list.
Exercise: state measured inhibition for each of the compounds provided.
One number for each entry, in %.

Reference set (6 entries):
CN1C(=O)C(=Cc2ccc(Sc3ccccc3)o2)C(=O)N(C)C1=O = 41
CC(C)(C)c1cc(C(F)(F)F)n2ncc(-c3ccccc3)c2n1 = 3.89
Cc1cccc2cc(CNCc3ccccc3)c(Cl)nc12 = -2.86
c1ccc(-c2cc3c(N4CCCC4)ncnc3s2)cc1 = 2.65
CCN(CC)c1ccc2c(c1)C(=O)N(C)C2=O = 7.2
O=C(c1cccnc1)N1CCC(Oc2ccc(C(=O)N3CCCCO3)cc2)CC1 = 4.71

Could you tell me inhibition for each of these compounds? They are listed below.
1. CCCSc1nnc(CSc2nc3nc(C)cc(C)n3n2)o1
2. CCCCSc1nnc(CSc2nc3nc(C)cc(C)n3n2)o1
3. O=C(CSc1nc2ccc(Cl)cc2[nH]1)NC1CCCc2ccccc21 (stereo unspecified)
4. O=C(Cc1ccc(-n2c(=O)c3sccc3n(CC(=O)Nc3ccccc3F)c2=O)cc1)NCc1ccco1
5. N#CC1=C2SCC(O)(c3ccccc3)N2C(=O)CC1c1cccs1 (stereo unspecified)
6. CN1CCN(c2ncnc3sc(-c4ccccc4)cc23)CC1

-11.4
8.33
17.1
-10.9
3.45
0.51

Could you tell me inhibition for each of these compounds? They are listed below.
1. CCn1c(NCc2ccccc2Cl)nc2ccccc21
2. Nc1ncnc(Oc2ccccc2F)c1[N+](=O)[O-]
3. COCOc1ccc(C=O)cc1OCOC

1. 1.72
2. 7.09
3. -3.9

Could you tell me inhibition for each of these compounds? They are listed below.
1. O=C(CSc1nc2ccccc2o1)N1CCN(C(=O)c2ccco2)CC1
2. Cc1ccccc1CN1C[C@@H]2C[C@@H](c3cn[nH]c3-c3ccccc3)N3CCC[C@@]23C1=O
3. Cc1cc(OCC(=O)N(Cc2ccco2)C2CCS(=O)(=O)C2)ccc1Cl (stereo unspecified)
4. CC1CCN(CCCNC(=O)COc2cc(=O)n(C)c3ccccc23)CC1
5. Nn1c(SCc2ccc(F)cc2)nnc1-c1cccnc1
6. Cc1ccc(CNCc2ccccc2Cl)cc1
7. CC(=O)NCc1nc2ccccc2n1Cc1ccccc1C

1: 8.7; 2: -6.92; 3: -8.25; 4: -0.28; 5: 0.75; 6: 6.89; 7: -1.94

Could you tell me inhibition for each of these compounds? They are listed below.
1. O=C(CCn1c(=O)[nH]c2ccccc2c1=O)Nc1ccccc1
2. Cc1cc(NCCCN2CCOCC2)n2ncc(-c3ccc(Cl)cc3)c2n1

[-7.56, 4.89]

Could you tell me inhibition for each of these compounds? They are listed below.
1. COc1ccc(NC(=O)CSc2nc3ccc(OC)cc3[nH]2)cc1
2. CCN1CCN(C(=O)C(=O)c2c(C)[nH]c3ccccc23)CC1
3. CCC(=O)Nc1nonc1-c1nc2ccccc2n1Cc1cccc2ccccc12
4. CC(=O)NCCc1nc2ccccc2n1Cc1ccccc1
5. COCc1cc(C)nc(Nc2ccc(C)c(C)c2)c1C#N

[45.7, 0.56, 20.3, 2.23, -2.04]

Could you tell me inhibition for each of these compounds? They are listed below.
1. c1ccc(-c2cc3c(N4CCN(c5ncccn5)CC4)ncnc3s2)cc1
2. Cc1ccc(Sc2ccc(/C=C3/C(=O)NN(c4ccccc4)C3=O)o2)cc1
3. O=C(NCc1cccc(CNC(=O)c2ccco2)c1)c1ccco1
4. COc1ccc2nc(SCC(=O)Nc3ccccc3)[nH]c2c1

1. -0.33
2. 75.7
3. -1.79
4. 6.28

Could you tell me inhibition for each of these compounds? They are listed below.
1. O=C(OCC#CCSc1nc2ccccc2s1)c1ccco1
2. CCC1=C(OC(=O)N(CC)CC)N2C(=O)OC(=NCc3ccccc3)[C@]2(C)[C@H]2C1=CC[C@H]1C(=O)N(CC(=O)OC)C(=O)[C@H]12
3. O=C(NN1C(=O)C2C(C1=O)C1C=CC2C12CC2)c1ccc(Cl)cc1 (stereo unspecified)

74.1
6.67
7.63

Could you tell me inhibition for each of these compounds? They are listed below.
1. CCS(=O)(=O)c1nc2ccccc2n1Cc1ccccc1Cl
2. CCOC(=O)N1CCN(c2ccc(Cl)c(Cl)c2)CC1
3. N#CCSc1nc2ccccc2o1
4. COc1ccc(-c2csc(N3C(=O)C4C5c6ccccc6C(c6ccccc65)C4C3=O)n2)cc1 (stereo unspecified)
5. CC(=O)O/C(=C\c1cn(C(C)=O)c2ccccc12)C(=O)O
6. CCN(CC)c1ccc(NC(=O)CCCCCN2C(=O)c3ccccc3C2=O)cc1

[0.3, 6.01, -5.91, 49, 7.86, -10.5]
